Entries with reported MIC on Aspergillus niger
The reply should be a number in µg/mL, with the unit left off.

Solved entries (count: 4):
| compound-string | MIC (µg/mL) |
| --- | --- |
| Cc1ccc(C)c(CN(C)Cc2ccc(C(C)(C)C)cc2)c1 | 7.8 |
| Cc1cccc(CN(C)Cc2ccc(C(C)(C)C)cc2)c1C | 15.6 |
| CC(C)(C)c1ccc(CNCc2cccc(Cl)c2Cl)cc1 | 125 |
| Cc1cc(C)cc(CN(C)Cc2ccc(C(C)(C)C)cc2)c1 | 125 |

// moving on: another record for MIC
Request body: readout MIC, system Aspergillus niger, query Cc1cc(C)c(CN(C)Cc2ccc(C(C)(C)C)cc2)c(C)c1 . Return the value.
7.8
